src = patent US20250277186A1

- Test system: Lacticaseibacillus rhamnosus FMBL L23004 CNN
- assay comment: Antibiotic sensitivity, drug-sensitive paper
- Format: cell-based
- particulars: text statement for the two strains
experimental readout: Resistant / sensitive, Lacticaseibacillus rhamnosus FMBL L23004 CNN

>  <molecule>
O=C(Cc1cccs1)N[C@@H]1C(=O)N2C(C(=O)[O-])=C(C[n+]3ccccc3)CS[C@H]12 [Cephaloridine]

>  <target entity>
Lacticaseibacillus rhamnosus FMBL L23004 CNN

>  <result>
sensitive

$$$$
>  <molecule>
NCC[C@H](O)C(=O)N[C@@H]1C[C@H](N)[C@@H](O[C@H]2O[C@H](CN)[C@@H](O)[C@H](O)[C@H]2O)[C@H](O)[C@H]1O[C@H]1O[C@H](CO)[C@@H](O)[C@H](N)[C@H]1O [Amikacin]

>  <target entity>
Lacticaseibacillus rhamnosus FMBL L23004 CNN

>  <result>
resistant

$$$$
>  <molecule>
CN[C@H](CC(C)C)C(=O)N[C@H]1C(=O)N[C@@H](CC(N)=O)C(=O)N[C@H]2C(=O)N[C@H]3C(=O)N[C@H](C(=O)N[C@H](C(=O)O)c4cc(O)cc(O)c4-c4cc3ccc4O)[C@H](O)c3ccc(c(Cl)c3)Oc3cc2cc(c3O[C@@H]2O[C@H](CO)[C@@H](O)[C@H](O)[C@H]2O[C@H]2C[C@](C)(N)[C@H](O)[C@H](C)O2)Oc2ccc(cc2Cl)[C@H]1O [Vancomycin]

>  <target entity>
Lacticaseibacillus rhamnosus FMBL L23004 CNN

>  <result>
resistant

$$$$
>  <molecule>
O=C(N[C@H](CO)[C@H](O)c1ccc([N+](=O)[O-])cc1)C(Cl)Cl [Chloramphenicol]

>  <target entity>
Lacticaseibacillus rhamnosus FMBL L23004 CNN

>  <result>
sensitive

$$$$
>  <molecule>
O=C(O)c1cn(C2CC2)c2cc(N3CCNCC3)c(F)cc2c1=O [Ciprofloxacin]

>  <target entity>
Lacticaseibacillus rhamnosus FMBL L23004 CNN

>  <result>
resistant

$$$$

---

- Tested on: Lactiplantibacillus plantarum FMBL L23036 CNN
- assay comment: Antibiotic sensitivity, drug-sensitive paper
- Type: cell-based
- particulars: text statement for the two strains
experimental readout: Resistant / sensitive, Lactiplantibacillus plantarum FMBL L23036 CNN

>  <compound>
CC1(C)S[C@@H]2[C@H](NC(=O)[C@H](N)c3ccccc3)C(=O)N2[C@H]1C(=O)O [Ampicillin]

>  <result>
sensitive

$$$$
>  <compound>
O=C(N[C@H](CO)[C@H](O)c1ccc([N+](=O)[O-])cc1)C(Cl)Cl [Chloramphenicol]

>  <result>
sensitive

$$$$

---

- System: Lacticaseibacillus rhamnosus FMBL L23004 CNN
- assay comment: Antibiotic sensitivity, drug-sensitive paper
- Type: cell-based
- particulars: text statement for the two strains
experimental readout: Resistant / sensitive, Lacticaseibacillus rhamnosus FMBL L23004 CNN

>  <compound>
CC1(C)S[C@@H]2[C@H](NC(=O)[C@H](N)c3ccc(O)cc3)C(=O)N2[C@H]1C(=O)O [Amoxicillin]

>  <result>
sensitive

$$$$
>  <compound>
CC1(C)S[C@@H]2[C@H](NC(=O)[C@H](N)c3ccccc3)C(=O)N2[C@H]1C(=O)O [Ampicillin]

>  <result>
sensitive

$$$$

---

- Tested on: Lactiplantibacillus plantarum FMBL L23036 CNN
- assay comment: Antibiotic sensitivity, drug-sensitive paper
- Assay type: cell-based
- particulars: text statement for the two strains
experimental readout: Resistant / sensitive, Lactiplantibacillus plantarum FMBL L23036 CNN

>  <compound>
CC1(C)S[C@@H]2[C@H](NC(=O)[C@H](N)c3ccc(O)cc3)C(=O)N2[C@H]1C(=O)O [Amoxicillin]

>  <result>
sensitive

$$$$
>  <compound>
CCn1cc(C(=O)O)c(=O)c2cc(F)c(N3CCNCC3)cc21 [Norfloxacin]

>  <result>
resistant

$$$$
>  <compound>
O=C(Cc1cccs1)N[C@@H]1C(=O)N2C(C(=O)[O-])=C(C[n+]3ccccc3)CS[C@H]12 [Cephaloridine]

>  <result>
sensitive

$$$$
>  <compound>
O=C(O)c1cn(C2CC2)c2cc(N3CCNCC3)c(F)cc2c1=O [Ciprofloxacin]

>  <result>
resistant

$$$$
>  <compound>
NCC[C@H](O)C(=O)N[C@@H]1C[C@H](N)[C@@H](O[C@H]2O[C@H](CN)[C@@H](O)[C@H](O)[C@H]2O)[C@H](O)[C@H]1O[C@H]1O[C@H](CO)[C@@H](O)[C@H](N)[C@H]1O [Amikacin]

>  <result>
resistant

$$$$

---

- Test system: Lactiplantibacillus plantarum FMBL L23036 CNN
- assay comment: Antibiotic sensitivity, drug-sensitive paper; for Antibiotic sensitivity of Lactiplantibacillus plantarum FMBL L23036 CNN: key: R: resistant; I: intermediately sensitive; S: sensitive
- Assay type: cell-based
- particulars: drug-sensitive paper (content per Table 3), MRS solid medium, anaerobic 37° C. 24 h
experimental readout: Antibiotic sensitivity of Lactiplantibacillus plantarum FMBL L23036 CNN

>  <smiles>
CC1(C)S[C@@H]2[C@H](NC(=O)[C@H](N)c3ccccc3)C(=O)N2[C@H]1C(=O)O

>  <result>
S

$$$$
>  <smiles>
CC1(C)S[C@@H]2[C@H](NC(=O)[C@H](N)c3ccc(O)cc3)C(=O)N2[C@H]1C(=O)O

>  <result>
S

$$$$
>  <smiles>
O=C(Cc1cccs1)N[C@@H]1C(=O)N2C(C(=O)[O-])=C(C[n+]3ccccc3)CS[C@H]12

>  <result>
S

$$$$
>  <smiles>
NCC[C@H](O)C(=O)N[C@@H]1C[C@H](N)[C@@H](O[C@H]2O[C@H](CN)[C@@H](O)[C@H](O)[C@H]2O)[C@H](O)[C@H]1O[C@H]1O[C@H](CO)[C@@H](O)[C@H](N)[C@H]1O

>  <result>
R

$$$$
>  <smiles>
O=C(N[C@H](CO)[C@H](O)c1ccc([N+](=O)[O-])cc1)C(Cl)Cl

>  <result>
S

$$$$
>  <smiles>
CO[C@H]1/C=C/O[C@@]2(C)Oc3c(C)c(O)c4c(O)c(c(/C=N/N5CCN(C)CC5)c(O)c4c3C2=O)NC(=O)/C(C)=C\C=C\[C@H](C)[C@H](O)[C@@H](C)[C@@H](O)[C@@H](C)[C@H](OC(C)=O)[C@@H]1C

>  <result>
S

$$$$
>  <smiles>
CN(C)c1ccc(O)c2c1C[C@H]1C[C@H]3[C@H](N(C)C)C(O)=C(C(N)=O)C(=O)[C@@]3(O)C(O)=C1C2=O

>  <result>
S

$$$$
>  <smiles>
CCn1cc(C(=O)O)c(=O)c2cc(F)c(N3CCNCC3)cc21

>  <result>
R

$$$$
>  <smiles>
[H]/N=C(/N)N[C@H]1[C@H](O)[C@@H](O)[C@H](O[C@@H]2O[C@@H](C)[C@](O)(C=O)[C@H]2O[C@@H]2O[C@@H](CO)[C@H](O)[C@@H](O)[C@@H]2NC)[C@@H](N/C(N)=N\[H])[C@@H]1O

>  <result>
R

$$$$
>  <smiles>
CCC[C@@H]1C[C@@H](C(=O)N[C@@H]([C@H]2O[C@H](SC)[C@H](O)[C@@H](O)[C@H]2O)[C@H](C)Cl)N(C)C1

>  <result>
S

$$$$
>  <smiles>
NC[C@H]1O[C@H](O[C@H]2[C@H](O)[C@@H](O[C@H]3O[C@H](CO)[C@@H](O)[C@H](N)[C@H]3O)[C@H](N)C[C@@H]2N)[C@H](O)[C@@H](O)[C@@H]1O

>  <result>
R

$$$$
>  <smiles>
CN[C@H](CC(C)C)C(=O)N[C@H]1C(=O)N[C@@H](CC(N)=O)C(=O)N[C@H]2C(=O)N[C@H]3C(=O)N[C@H](C(=O)N[C@H](C(=O)O)c4cc(O)cc(O)c4-c4cc3ccc4O)[C@H](O)c3ccc(c(Cl)c3)Oc3cc2cc(c3O[C@@H]2O[C@H](CO)[C@@H](O)[C@H](O)[C@H]2O[C@H]2C[C@](C)(N)[C@H](O)[C@H](C)O2)Oc2ccc(cc2Cl)[C@H]1O

>  <result>
R

$$$$
>  <smiles>
Cc1onc(-c2ccccc2)c1C(=O)N[C@@H]1C(=O)N2[C@@H]1SC(C)(C)[C@@H]2C(=O)O

>  <result>
R

$$$$
>  <smiles>
CN(C)[C@@H]1C(O)=C(C(N)=O)C(=O)[C@@]2(O)C(O)=C3C(=O)c4c(O)cccc4[C@@](C)(O)[C@H]3C[C@@H]12

>  <result>
S

$$$$
>  <smiles>
CC[C@H]1OC(=O)[C@H](C)[C@@H](O[C@H]2C[C@@](C)(OC)[C@@H](O)[C@H](C)O2)[C@H](C)[C@@H](O[C@@H]2O[C@H](C)C[C@H](N(C)C)[C@H]2O)[C@](C)(O)C[C@@H](C)C(=O)[C@H](C)[C@@H](O)[C@]1(C)O

>  <result>
I

$$$$
>  <smiles>
O=C(O)c1cn(C2CC2)c2cc(N3CCNCC3)c(F)cc2c1=O

>  <result>
R

$$$$
